TARGET_ENTITY: Interstitial collagenase (Homo sapiens, UniProt P03956)
Sequence (P03956 whole entry): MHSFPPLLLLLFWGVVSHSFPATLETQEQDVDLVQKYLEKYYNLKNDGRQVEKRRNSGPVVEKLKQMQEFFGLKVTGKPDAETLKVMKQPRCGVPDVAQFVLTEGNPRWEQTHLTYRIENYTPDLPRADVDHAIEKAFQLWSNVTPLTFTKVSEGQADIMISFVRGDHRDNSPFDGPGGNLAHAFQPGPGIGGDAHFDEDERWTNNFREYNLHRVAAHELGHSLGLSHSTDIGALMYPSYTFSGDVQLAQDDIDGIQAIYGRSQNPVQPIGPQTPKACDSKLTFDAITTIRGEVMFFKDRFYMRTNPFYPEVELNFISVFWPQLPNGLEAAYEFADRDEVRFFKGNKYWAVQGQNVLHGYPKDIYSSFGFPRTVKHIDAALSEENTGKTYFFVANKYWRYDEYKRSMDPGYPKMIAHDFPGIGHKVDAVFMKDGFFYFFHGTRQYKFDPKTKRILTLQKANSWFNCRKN
RECORDED_METRIC: IC50 (nM)

Guide cases for IC50, answers given:
1. CNC(=O)[C@H](Cc1ccccc1)NC(=O)[C@H](CC(C)C)N[C@H](CCN1C(=O)c2ccccc2C1=O)C(=O)O : 81
2. CNC(=O)[C@H](Cc1ccccc1)NC(=O)[C@H](CC(C)C)N[C@H](CCN1C(=O)c2cc3ccccc3c(OC)c2C1=O)C(=O)O : 54

(a) CC(C)C[C@H](N[C@H](CCN1C(=O)c2cc3ccccc3cc2C1=O)C(=O)O)C(=O)N1CCCC1c1cccnc1 (stereo in doubt; 76)
(b) CNC(=O)[C@H](Cc1ccccc1)NC(=O)[C@H](CC(C)C)N[C@H](CCN1C(=O)c2cc3ccc(OC)cc3cc2C1=O)C(=O)O
(c) CNC(=O)CNC(=O)[C@H](CC(C)C)N[C@H](CCN1C(=O)c2cc3ccccc3cc2C1=O)C(=O)O
(d) CC(C)C[C@H](N[C@H](CCN1C(=O)c2cc3ccccc3cc2C1=O)C(=O)O)C(=O)N1CCN(C)CC1
(e) CNC(=O)[C@H](Cc1ccccc1)NC(=O)[C@H](CC(C)C)N[C@H](CCN1C(=O)c2ccc(-c3ccccc3)cc2C1=O)C(=O)O
Query: Sort (5 compounds) by IC50: min first. To answer, write out the labels according to the requested order.
Response: e, b, d, a, c

====

ASSAY_OVERVIEW: Half-life period for the activity is tested at pH 6.8
Type: ADME
RECORDED_METRIC: half-life (h)

1) CNC(=O)[C@H](Cc1ccccc1)NC(=O)[C@H](CC(C)C)N[C@H](CCN1C(=O)c2cc3c(cc2C1=O)OCO3)C(=O)O : 15.5
2) CCCOc1ccc2c(c1)C(=O)N(CC[C@@H](N[C@@H](CC(C)C)C(=O)N[C@@H](Cc1ccccc1)C(=O)NC)C(=O)O)C2=O : 10.9
3) CNC(=O)[C@H](CC(C)C)NC(=O)[C@H](CC(C)C)N[C@H](CCN1C(=O)c2cc3ccccc3cc2C1=O)C(=O)O : 27
4) CNC(=O)[C@H](Cc1ccccc1)NC(=O)[C@H](CC(C)C)N[C@H](CCN1C(=O)c2cc3ccccc3nc2C1=O)C(=O)O : 1.7
5) CNC(=O)[C@H](Cc1ccccc1)NC(=O)[C@H](CC(C)C)N[C@H](CCN1C(=O)c2cc3cccc(OC)c3cc2C1=O)C(=O)O : 7.2
6) CNC(=O)[C@H](Cc1ccccc1)NC(=O)[C@H](CC(C)C)N[C@H](CCn1c(=O)c2cc3c(=O)[nH]c(=O)c3cc2c1=O)C(=O)O : 1.7
7) CC(C)C[C@H](NC(=O)[C@H](CC(C)C)N[C@H](CCN1C(=O)c2cc3ccccc3cc2C1=O)C(=O)O)C(=O)NCCN1CCOCC1 : 37
8) CNC(=O)[C@H](Cc1ccccc1)NC(=O)[C@H](CC(C)C)N[C@H](CCN1C(=O)c2cc3ccccc3c(OC)c2C1=O)C(=O)O : 87
9) CNC(=O)[C@H](Cc1ccccc1)NC(=O)[C@H](CC(C)C)N[C@H](CCN1C(=O)c2ccc(-c3ccccc3)cc2C1=O)C(=O)O : 7.8

(A) CNC(=O)[C@H](Cc1ccccc1)NC(=O)[C@H](CC(C)C)N[C@H](CCN1C(=O)c2cc3ccccc3cc2C1=O)C(=O)O
(B) CNC(=O)[C@H](Cc1ccccc1)NC(=O)[C@H](CC(C)C)N[C@H](CCN1C(=O)c2ccccc2C1=O)C(=O)O
Query: A or B : whose half-life is greater? Bench note: the answer is the label of the chosen record.
Response: A

====

TARGET_ENTITY: UniProt:P03956
Sequence (P03956 whole entry): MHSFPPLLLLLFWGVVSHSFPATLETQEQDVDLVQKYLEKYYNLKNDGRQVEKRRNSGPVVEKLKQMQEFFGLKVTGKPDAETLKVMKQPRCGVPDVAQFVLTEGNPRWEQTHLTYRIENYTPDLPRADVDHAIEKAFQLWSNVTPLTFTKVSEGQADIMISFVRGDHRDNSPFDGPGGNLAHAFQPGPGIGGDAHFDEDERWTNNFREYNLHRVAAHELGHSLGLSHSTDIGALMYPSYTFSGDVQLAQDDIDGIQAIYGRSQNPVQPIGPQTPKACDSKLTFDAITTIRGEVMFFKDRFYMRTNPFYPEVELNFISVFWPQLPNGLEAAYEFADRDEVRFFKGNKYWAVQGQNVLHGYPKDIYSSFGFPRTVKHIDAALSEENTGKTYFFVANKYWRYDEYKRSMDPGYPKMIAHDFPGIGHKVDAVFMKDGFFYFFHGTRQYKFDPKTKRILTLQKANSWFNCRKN
pIC50: −log10 of the molar value.
RECORDED_METRIC: pIC50

1. CNC(=O)[C@H](CCCN=C(N)N)NC(=O)[C@H](CC(C)C)N[C@H](CCN1C(=O)c2cc3ccccc3cc2C1=O)C(=O)O : 6.82

(A) CC(C)C[C@H](N[C@H](CCN1C(=O)c2cc3ccccc3cc2C1=O)C(=O)O)C(=O)NC1CCCc2ccccc21 (some centres undefined)
(B) CNC(=O)[C@H](CC(C)C)NC(=O)[C@H](CC(C)C)N[C@H](CCN1C(=O)c2cc3ccccc3cc2C1=O)C(=O)O
(C) CNC(=O)[C@H](Cc1ccccc1)NC(=O)[C@H](CC(C)C)N[C@H](CCNC(=O)c1ccc2ccccc2c1)C(=O)O
Query: Ordering: ascending pIC50. // format: requested-order list of labels
Response: C, A, B
(C: 6.31, A: 6.97, B: 7.31)

====

Parameter IC50, tested on Matrix metalloproteinase-9 (Homo sapiens), listed per item.
Sequence (P14780 whole entry): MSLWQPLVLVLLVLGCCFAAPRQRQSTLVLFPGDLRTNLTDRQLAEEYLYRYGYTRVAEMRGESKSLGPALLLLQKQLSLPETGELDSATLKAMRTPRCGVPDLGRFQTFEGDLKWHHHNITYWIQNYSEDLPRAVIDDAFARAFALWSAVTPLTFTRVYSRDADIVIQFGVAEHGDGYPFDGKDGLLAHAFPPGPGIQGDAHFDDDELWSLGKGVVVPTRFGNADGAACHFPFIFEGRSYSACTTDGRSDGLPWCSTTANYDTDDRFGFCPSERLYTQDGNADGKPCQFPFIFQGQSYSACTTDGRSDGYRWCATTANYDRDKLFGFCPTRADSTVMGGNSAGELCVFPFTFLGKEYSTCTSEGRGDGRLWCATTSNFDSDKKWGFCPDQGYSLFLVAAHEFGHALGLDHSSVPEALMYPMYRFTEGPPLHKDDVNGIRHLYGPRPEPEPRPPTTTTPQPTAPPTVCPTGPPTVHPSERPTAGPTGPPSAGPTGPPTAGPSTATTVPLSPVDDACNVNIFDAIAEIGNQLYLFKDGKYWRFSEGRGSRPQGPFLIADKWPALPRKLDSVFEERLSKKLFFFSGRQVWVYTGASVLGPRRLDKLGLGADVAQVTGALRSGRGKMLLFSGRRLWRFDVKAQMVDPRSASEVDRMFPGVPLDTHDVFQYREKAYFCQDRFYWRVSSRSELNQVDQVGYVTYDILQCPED
RECORDED_METRIC: IC50 (µM)

1) CC(C)C[C@H](N[C@H](CCN1C(=O)c2cc3ccccc3cc2C1=O)C(=O)O)C(=O)NC(C)c1ccccc1 (some centres undefined) : 0.012
2) CC(C)C[C@H](N[C@H](CCN1C(=O)c2cc3ccccc3cc2C1=O)C(=O)O)C(=O)Nc1ccccc1 : 0.101

(a) CCCOc1ccc2c(c1)C(=O)N(CC[C@@H](N[C@@H](CC(C)C)C(=O)N[C@@H](Cc1ccccc1)C(=O)NC)C(=O)O)C2=O
(b) CC(C)C[C@H](N[C@H](CCN1C(=O)c2cc3ccccc3cc2C1=O)C(=O)O)C(=O)NC1CCCc2ccccc21 (some centres undefined)
Query: Choose between a and b : whose measured IC50 value is numerically larger? Pick one; state its label.
Response: b

====

Entries with their measured IC50, system Matrix metalloproteinase-9 (Homo sapiens, UniProt P14780):
RECORDED_METRIC: IC50 (nM)

1. CNC(=O)[C@H](Cc1ccc(O)cc1)NC(=O)[C@H](CC(C)C)N[C@H](CCN1C(=O)c2cc3ccccc3cc2C1=O)C(=O)O : 3.8
2. CC(C)C[C@H](N[C@H](CCN1C(=O)c2cc3ccccc3cc2C1=O)C(=O)O)C(=O)N(C)C : 82
3. CNC(=O)[C@H](Cc1ccccc1)NC(=O)[C@H](CC(C)C)N[C@H](CCN1C(=O)c2ccccc2C1=O)C(=O)O : 59
4. CNC(=O)[C@H](CC(C)C)N[C@H](CCN1C(=O)c2cc3ccccc3cc2C1=O)C(=O)O : 706
5. CNC(=O)[C@H](Cc1ccccc1)NC(=O)[C@H](CC(C)C)N[C@H](CCN1Cc2cc3ccccc3cc2C1=O)C(=O)O : 63
6. CC(C)C[C@H](N[C@H](CCN1C(=O)c2cc3ccccc3cc2C1=O)C(=O)O)C(=O)NCCc1ccccc1 : 35

(a) CC(C)C[C@H](N[C@H](CCN1C(=O)c2cc3ccccc3cc2C1=O)C(=O)O)C(=O)NCc1ccccc1
(b) CNC(=O)[C@H](Cc1ccccc1)NC(=O)[C@H](CC(C)C)N[C@H](CCN1C(=O)c2cc3c(cc2C1=O)OCO3)C(=O)O
Query: // max by IC50 over [ a , b ] Answer by stating the label of the chosen item.
Response: a
(a: 32 nM, b: 5 nM)
